- study.system: HsProRS (Homo sapiens, UniProt P07814)
- Sequence (P07814 1007-1512 limits assumed): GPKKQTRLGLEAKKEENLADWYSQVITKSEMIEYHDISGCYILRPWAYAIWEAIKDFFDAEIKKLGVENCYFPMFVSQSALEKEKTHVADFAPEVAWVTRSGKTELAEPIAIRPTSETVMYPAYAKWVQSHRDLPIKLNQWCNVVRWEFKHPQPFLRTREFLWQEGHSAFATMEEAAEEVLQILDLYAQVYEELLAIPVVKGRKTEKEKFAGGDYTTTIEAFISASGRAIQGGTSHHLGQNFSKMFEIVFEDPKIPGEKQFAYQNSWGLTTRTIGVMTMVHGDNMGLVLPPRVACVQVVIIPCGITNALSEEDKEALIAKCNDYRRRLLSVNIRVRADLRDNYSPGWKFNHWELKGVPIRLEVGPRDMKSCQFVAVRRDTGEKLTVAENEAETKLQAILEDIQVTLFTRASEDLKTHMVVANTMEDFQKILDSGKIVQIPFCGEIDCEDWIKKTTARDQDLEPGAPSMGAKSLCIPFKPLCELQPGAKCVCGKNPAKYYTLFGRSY
- experiment: TR-FRET ligand displacement assay with tracer MAT379, HsProRS
- Format: binding
- conditions: HsProRS (KD [nM]) +ATP, +ATP
parameter.measured: Kd (nM)

>>> test_value("O=C(C[C@H]1NCCC[C@@H]1O)Cn1cnc2cc(Br)c(Cl)cc2c1=O [halofuginone(1), halofuginone, reference compound]")
0.225

###

- study.system: PfcProRS (Plasmodium falciparum, UniProt Q8I5R7)
- Sequence (Q8I5R7 whole entry): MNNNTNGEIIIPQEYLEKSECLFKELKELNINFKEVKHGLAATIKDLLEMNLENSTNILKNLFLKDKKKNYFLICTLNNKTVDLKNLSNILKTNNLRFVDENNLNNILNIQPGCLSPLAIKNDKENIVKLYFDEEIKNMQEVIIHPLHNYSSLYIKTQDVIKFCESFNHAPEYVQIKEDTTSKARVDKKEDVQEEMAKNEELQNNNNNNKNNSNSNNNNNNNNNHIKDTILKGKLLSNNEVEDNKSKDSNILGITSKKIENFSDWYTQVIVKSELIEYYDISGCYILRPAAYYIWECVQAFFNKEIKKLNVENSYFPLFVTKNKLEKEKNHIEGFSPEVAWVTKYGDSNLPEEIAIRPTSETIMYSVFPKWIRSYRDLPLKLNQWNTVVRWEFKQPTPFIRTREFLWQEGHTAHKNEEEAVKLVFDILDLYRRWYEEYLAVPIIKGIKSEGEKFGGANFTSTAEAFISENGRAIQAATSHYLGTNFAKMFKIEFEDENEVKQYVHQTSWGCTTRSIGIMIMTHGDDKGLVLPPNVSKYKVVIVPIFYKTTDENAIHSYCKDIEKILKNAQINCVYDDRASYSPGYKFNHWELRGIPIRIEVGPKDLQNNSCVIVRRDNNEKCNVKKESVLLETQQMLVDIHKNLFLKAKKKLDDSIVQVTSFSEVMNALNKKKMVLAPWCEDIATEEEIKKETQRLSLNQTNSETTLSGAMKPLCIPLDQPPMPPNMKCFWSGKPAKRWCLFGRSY
- experiment: TR-FRET ligand displacement assay with tracer MAT379, PfcProRS
- Format: binding
- conditions: no proline, no ATP; read-out: PfcProRS (KD [nM]) −
parameter.measured: log10 Kd (log10 of the value in nM)

>>> test_value("O=C(NC1Cc2ccccc2C1)c1nccnc1NC(=O)N1CCC(CCO)CC1")
2.71
>>> test_value("O=C(NC1Cc2ccccc2C1)c1nccnc1NC(=O)N1CCCCC1")
2.11
>>> test_value("NC1(C(=O)Nc2nccnc2C(=O)NC2Cc3ccccc3C2)CCCCC1")
3.14
>>> test_value("O=C(CCCCCNC(=S)Nc1ccccc1)NC1CCN(C(=O)Nc2nccnc2C(=O)NC2Cc3ccccc3C2)CC1")
1.89
>>> test_value("Nc1ncnc2c1ncn2[C@@H]1O[C@H](COS(=O)(=O)NC(=O)OC2CCCNC2CC(=O)Cn2cnc3cc(Br)c(Cl)cc3c2=O)[C@@H](O)[C@H]1O (stereo partly shown)")
0.70
>>> test_value("O=C(NC1Cc2ccccc2C1)c1nccnc1NC(=O)C1CCCCC1 [Compound 2, reference compound]")
2.64
>>> test_value("CC(C)(C)OC(=O)N1CCC[C@H](OC(=O)NS(=O)(=O)N2CCN(C(=O)Nc3nccnc3C(=O)NC3Cc4ccccc4C3)CC2)[C@H]1CC(=O)Cn1cnc2cc(Br)c(Cl)cc2c1=O (relative stereo)")
2.39
>>> test_value("CC1(C(=O)Nc2nccnc2C(=O)NC2Cc3ccccc3C2)CCCCC1")
2.44
>>> test_value("CC(C)(C)OC(=O)NCC1CCN(C(=O)Nc2nccnc2C(=O)NC2Cc3ccccc3C2)CC1")
2.58

###

- study.system: PfcProRS (Plasmodium falciparum, UniProt Q8I5R7)
- experiment: TR-FRET ligand displacement assay with tracer MAT379, PfcProRS
- Type: binding
- conditions: PfcProRS (KD [nM]) +proline, 100 μM Pro
Structures can show the parent of a compound that is named as a salt.
Entries and their Kd
parameter.measured: Kd (nM)

>>> test_value("O=C(NC1Cc2ccccc2C1)c1nccnc1NC(=O)N1CCCCC1")
2.52
>>> test_value("CC(C)(C)OC(=O)N[C@H]1CC[C@@H](C(=O)Nc2nccnc2C(=O)NC2Cc3ccccc3C2)CC1")
26.3
>>> test_value("CC(C)(C)OC(=O)NCCCCCC(=O)NC1CCN(C(=O)Nc2nccnc2C(=O)NC2Cc3ccccc3C2)CC1")
182
>>> test_value("O=C(NC1Cc2ccccc2C1)c1nccnc1NC(=O)C1CCCCC1 [Compound 2, reference compound]")
7.17
>>> test_value("O=C(CCCCCNC(=S)NC1CCCCC1)NCC1CCN(C(=O)Nc2nccnc2C(=O)NC2Cc3ccccc3C2)CC1")
288
>>> test_value("CC(C)(C)OC(=O)N1CCC[C@@H](OC(=O)NS(=O)(=O)N2CCN(C(=O)Nc3nccnc3C(=O)NC3Cc4ccccc4C3)CC2)[C@@H]1CC(O)Cn1cnc2cc(Br)c(Cl)cc2c1=O (stereo partly drawn)")
2740
>>> test_value("O=C(C[C@H]1NCCC[C@@H]1OC(=O)NS(=O)(=O)N1CCN(C(=O)Nc2nccnc2C(=O)NC2Cc3ccccc3C2)CC1)Cn1cnc2cc(Br)c(Cl)cc2c1=O (relative stereo) [MAT436 (34), hydrobromide]")
0.722
>>> test_value("O=C(NS(=O)(=O)NCC1CCN(C(=O)Nc2nccnc2C(=O)NC2Cc3ccccc3C2)CC1)OCCn1cnc2ccccc2c1=O")
32.6
>>> test_value("O=C(NC1Cc2ccccc2C1)c1nccnc1NC(=O)C1CCOCC1")
1590
>>> test_value("O=C(CCCCCNC(=O)Nc1ccccc1)NC1CCN(C(=O)Nc2nccnc2C(=O)NC2Cc3ccccc3C2)CC1")
46.6
>>> test_value("O=C(Nc1nccnc1C(=O)NC1Cc2ccccc2C1)c1ccccc1")
1430
>>> test_value("NC1(C(=O)Nc2nccnc2C(=O)NC2Cc3ccccc3C2)CCCCC1")
131
>>> test_value("CC1(C(=O)Nc2nccnc2C(=O)NC2Cc3ccccc3C2)CCCCC1")
3.42
>>> test_value("CC(C)(C)OC(=O)NCCCCCC(=O)NCC1CCN(C(=O)Nc2nccnc2C(=O)NC2Cc3ccccc3C2)CC1")
320
>>> test_value("O=C(NS(=O)(=O)N1CCN(C(=O)Nc2nccnc2C(=O)NC2Cc3ccccc3C2)CC1)O[C@H]1CCCN[C@@H]1CC(O)Cn1cnc2cc(Br)c(Cl)cc2c1=O (stereo partly drawn) [MAT583, 2,2,2-trifluoroacetate]")
19
>>> test_value("C[C@@H]1CCC[C@H](C)N1C(=O)Nc1nccnc1C(=O)NC1Cc2ccccc2C1")
1180
>>> test_value("CC(C)(C)OC(=O)N1CCC[C@H](OC(=O)NS(=O)(=O)N2CCN(C(=O)Nc3nccnc3C(=O)NC3Cc4ccccc4C3)CC2)[C@H]1CC(=O)Cn1cnc2cc(Br)c(Cl)cc2c1=O (relative stereo)")
175
